The reported numbers originate from the RNAGym collection of RNA variant scans (doi:10.7554/elife.80360).

B1: CPEB3 Ribozyme (parent)
chain: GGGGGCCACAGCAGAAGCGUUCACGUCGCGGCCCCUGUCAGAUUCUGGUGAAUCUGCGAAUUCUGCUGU

variants of: B1; experiment: self-cleavage, relative activity (ratio to wild type); higher = more cleavage; co-transcriptional
Quantity Measured: self-cleavage
Output spec: single numeric token, no unit.

Input line: Recorded self-cleavage for C24A A52U , please?
Output line: 0.632

Input line: What value of self-cleavage has been reported for the following variant? C6G G25A
Output line: 0.0449

Input line: I'd like to know its self-cleavage. The variant in question is C6A U36A
Output line: 0.128

Input line: Dear colleague, I am looking for the recorded self-cleavage of the following variant: A13C U38G
Output line: 0.0833

Input line: For the variant U43C U49G , what self-cleavage is on record?
Output line: 0.949

Input line: Give its self-cleavage value. Item: C34G G58U
Output line: 0.772

Input line: Fill in: self-cleavage of G11C G41U is ___
Output line: 0.238

Input line: Record request: self-cleavage value, item G11U A51C
Output line: 0.669

Input line: # get_value(readout='self-cleavage', item= A16U C45G )
Output line: 0.839

Input line: Returns the measured self-cleavage for the input variant. Input: G4A G58C
Output line: 0.701

Input line: What self-cleavage value was documented for this variant, G37C U44G ?
Output line: 0.211

Input line: Value lookup for self-cleavage; key = G17A G56C
Output line: 0.238

Input line: Need self-cleavage, item G19U G48C
Output line: 0.699

Input line: Fill in: self-cleavage of C6U U20A is ___
Output line: 0.115

Input line: // query self-cleavage value for entry C32A A51U
Output line: 0.566

Input line: Return reported self-cleavage; argument: C35G U67C
Output line: 0.486

Input line: Which self-cleavage is reported for this variant? U38A G65A
Output line: 0.733

Input line: Param item = C34A A51C ; retrieve measured self-cleavage.
Output line: 0.615

Input line: Would you mind telling me what self-cleavage value was observed for A42U U64C ?
Output line: 0.609

Input line: Quick one: self-cleavage of A10U C57A ?
Output line: 0.273

Input line: Suppose we examine the variant C54U U69A ; what self-cleavage value has been reported?
Output line: 1.04

Input line: Could you tell me which self-cleavage is on file for C22G C24U ?
Output line: 0.182

Input line: Endpoint output: self-cleavage of A15U C57U . Value?
Output line: 0.323

Input line: Endpoint output: self-cleavage of U20G C29U . Value?
Output line: 0.137
